What follows is literature data on IC50 for Aminopeptidase N (Sus scrofa, UniProt P15145).
Rule: IC50 below 5 µM gives Y, anything at or above gives N.

| compound | target-system | qualitative-label |
| --- | --- | --- |
| CCCCC(N)P(=O)(O)C(=S)NCCc1ccccc1 (stereo not given) | Aminopeptidase N (Sus scrofa, UniProt P15145) | Y |

For N[C@@H](C(=O)NCCc1ccc(O)cc1)[C@@H](O)c1ccc([N+](=O)[O-])cc1 , is the recorded IC50 below the cut-off of 5 µM?
N

For NC1(C(=O)N[C@@H](Cc2ccccc2)C(=O)NO)CCN(c2ncnc3[nH]ccc23)CC1 , is the recorded IC50 below the cut-off of 5 µM?
N

For C[C@@H](NC(=O)/C=C/c1ccccc1)C(=O)Nc1nnc(-c2ccc(Cl)cc2)s1 , is the recorded IC50 below the cut-off of 5 µM?
N

For CSCC[C@H](NC(=O)N[C@@H](CCCCNC(=O)OCc1ccccc1)C(=O)NO)C(=O)NO , is the recorded IC50 below the cut-off of 5 µM?
N

For COc1ccc(CNC(=S)P(=O)(O)C(N)CCc2ccccc2)cc1 (stereo not given) , is the recorded IC50 below the cut-off of 5 µM?
Y

For COc1cc(C(=O)N[C@H](CCC(=O)O)C(=O)NCc2cccc(Br)c2)cc(OC)c1OC , is the recorded IC50 below the cut-off of 5 µM?
N

For NCCC(=O)NC[C@H](N)Cc1ccccc1 , is the recorded IC50 below the cut-off of 5 µM?
N

* * *

- target-system: Aminopeptidase N (Sus scrofa)
- Sequence (P15145 whole entry): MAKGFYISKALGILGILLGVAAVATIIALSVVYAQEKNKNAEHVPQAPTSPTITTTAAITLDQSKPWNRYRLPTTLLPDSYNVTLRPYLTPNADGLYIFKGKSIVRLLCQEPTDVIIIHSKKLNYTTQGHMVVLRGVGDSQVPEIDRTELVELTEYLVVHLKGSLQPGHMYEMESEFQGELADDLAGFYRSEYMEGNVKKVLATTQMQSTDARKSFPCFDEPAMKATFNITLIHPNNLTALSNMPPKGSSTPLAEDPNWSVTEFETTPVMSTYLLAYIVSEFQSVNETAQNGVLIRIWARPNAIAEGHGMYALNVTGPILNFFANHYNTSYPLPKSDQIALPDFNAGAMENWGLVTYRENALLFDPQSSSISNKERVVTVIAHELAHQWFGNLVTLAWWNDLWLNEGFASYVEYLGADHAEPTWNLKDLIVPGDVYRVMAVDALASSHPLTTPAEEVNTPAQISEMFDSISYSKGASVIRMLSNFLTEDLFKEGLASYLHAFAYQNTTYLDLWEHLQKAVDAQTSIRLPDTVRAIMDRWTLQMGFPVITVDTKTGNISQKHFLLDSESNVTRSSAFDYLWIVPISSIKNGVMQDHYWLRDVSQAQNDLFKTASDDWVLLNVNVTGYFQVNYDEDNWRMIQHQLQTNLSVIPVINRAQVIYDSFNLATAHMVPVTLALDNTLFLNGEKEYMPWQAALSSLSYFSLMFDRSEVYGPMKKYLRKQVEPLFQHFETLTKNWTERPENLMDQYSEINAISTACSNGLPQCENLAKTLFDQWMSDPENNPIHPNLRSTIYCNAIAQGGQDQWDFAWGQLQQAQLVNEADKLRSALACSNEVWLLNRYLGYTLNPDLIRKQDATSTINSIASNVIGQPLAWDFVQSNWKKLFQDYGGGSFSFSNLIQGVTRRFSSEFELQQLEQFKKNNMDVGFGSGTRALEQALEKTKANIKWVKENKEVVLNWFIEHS
What follows is literature data on IC50 for Aminopeptidase N (Sus scrofa).

| compound | target-system | measured-endpoint | value |
| --- | --- | --- | --- |
| COc1cc(C(=O)N[C@H](CCC(=O)O)C(=O)Nc2ccc(Br)cc2)cc(OC)c1OC | Aminopeptidase N (Sus scrofa) | IC50 | 41.9 µM |
| C/C(=N\NC(=O)Cn1c(=O)c(C)nc2ccccc21)c1ccccc1 | Aminopeptidase N (Sus scrofa) | IC50 | 99.9 µM |
| Cc1ccc(NC(=O)N[C@@H](CC(C)C)C(=O)NO)cc1Cl | Aminopeptidase N (Sus scrofa) | IC50 | 0.09 µM |

Fill in IC50 for each of the 8 compounds listed.
1. Cc1cccc(CNC(=O)N[C@@H](CC(C)C)C(=O)NO)c1C
2. COC(=O)[C@H](CCCCNC(=O)OCc1ccccc1)NC(=O)NC(C)(C)C
3. Cc1nc2ccccc2n(CC(=O)N/N=C/c2ccccc2)c1=O
4. CC(C)C[C@H](NC(=O)NCc1cn(CCc2ccccc2)nn1)C(=O)NO
5. C[C@@H](NC(=O)/C=C/c1ccc(O)cc1)C(=O)Nc1nnc(-c2ccccc2)s1
6. N[C@@H](CO)C(=O)NC[C@H](N)[C@@H](O)c1ccc([N+](=O)[O-])cc1
7. CC[C@H](C)[C@H](NC(=O)N[C@@H](CC(C)C)C(=O)NC[C@H](N)Cc1ccccc1)C(=O)O
8. N[C@@H](CNC(=O)/C=C/c1ccc(O)c(O)c1)Cc1ccccc1

["0.07 µM", "> 50 µM", "341 µM", "3.6 µM", "124 µM", "423 µM", "148 µM", "492 µM"]

Fill in IC50 for each of the 4 compounds listed.
1. CC(C)C[C@H](NC(=O)NCCCCc1ccccc1)C(=O)NO
2. CC(C)C[C@H](NC(=O)[C@H](N)[C@@H](O)c1ccc([N+](=O)[O-])cc1)C(=O)N[C@@H](Cc1ccccc1)C(=O)O
3. COc1cc(C(=O)N[C@H]2CCC(=O)N(CC(=O)NO)C2=O)cc(OC)c1OC
4. N[C@@H](CNC(=O)[C@H](Cc1ccccc1)NC(=O)CCc1ccccc1)Cc1ccccc1

2.3 µM
34.6 µM
3.1 µM
366 µM

Fill in IC50 for each of the 2 compounds listed.
1. CC(C)C[C@H](NC(=O)CN1C(=O)CC[C@H](NC(=O)[C@@H](N)Cc2ccccc2)C1=O)C(=O)O
2. CC[C@H](C)[C@H](NC(=O)CN1C(=O)C2(OCCO2)c2cc(Br)ccc21)C(=O)NO

8.42 µM
631 µM

Fill in IC50 for each of the 2 compounds listed.
1. COC(=O)C[C@H](NC(=O)CN1C(=O)CC[C@H](NC(=O)c2cc(OC)c(OC)c(OC)c2)C1=O)C(=O)OC
2. COc1ccccc1C(C)n1cc(CNC(=O)N[C@@H](CC(C)C)C(=O)NO)nn1 (some centres undefined)

1. 21.7 µM
2. 0.55 µM
